targetEntity: tumor necrosis factor alpha (TNFα) (human, UniProt P01375 77-233)
Sequence (P01375 77-233 limits assumed): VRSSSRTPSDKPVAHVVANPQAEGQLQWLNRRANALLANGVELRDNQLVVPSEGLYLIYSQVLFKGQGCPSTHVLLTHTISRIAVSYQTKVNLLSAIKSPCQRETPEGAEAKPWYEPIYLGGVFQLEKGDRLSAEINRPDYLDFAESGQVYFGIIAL
experimentalProtocol: affinity by IC50 ELISA (so named in paragraph 380)
measuredAttribute: Affinity

[
  {
    "binder": "MAb 716 (antibody, V domains shown, also called 142 F2; H1280/L250) VH: EVQLLESGGGLIQPGGSLRLSCAASGFTVSSNYMSWVRQAPGKGLEWVSVIYSGGSTYYADSVKGRFTISRDNSKNTLYLQMNSLRAEDTAVYYCARNYYGSTYDYWGQGTLVTVSS VL: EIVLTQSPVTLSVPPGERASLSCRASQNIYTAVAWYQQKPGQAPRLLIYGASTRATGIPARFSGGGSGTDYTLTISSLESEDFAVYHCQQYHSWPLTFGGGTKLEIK",
    "endpointValue": "> 10 nM"
  },
  {
    "binder": "MAb 696 (antibody, V domains shown, also called 121 E1B; H1193/L250) VH: EVQLVESGGGLIQPGGSLRLSCAASGFTVSSNYMSWVRQAPGKGLEWVSVIYSGGRTYYADSVKGRFTISRDSSKNTLYLQMNSLRAEDTAVYYCARNYYGSTYDYWGQGTLVTVSS VL: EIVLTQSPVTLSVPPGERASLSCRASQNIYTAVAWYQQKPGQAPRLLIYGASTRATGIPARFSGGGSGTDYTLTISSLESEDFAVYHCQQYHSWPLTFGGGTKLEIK",
    "endpointValue": "0.6 nM"
  },
  {
    "binder": "MAb 695 (antibody, V domains shown, also called 121 D11; H1192/L250) VH: EVQLLESGGGLIQPGGSLRLSCAASGFTVSSNYMSWVRQAPGKGLEWVSVIYSGGRTYYADSVKGRFTISRDSSKNTLYLQMNSLRAEDTAVYYCARNYYGSTYDYWGQGTLVTVSS VL: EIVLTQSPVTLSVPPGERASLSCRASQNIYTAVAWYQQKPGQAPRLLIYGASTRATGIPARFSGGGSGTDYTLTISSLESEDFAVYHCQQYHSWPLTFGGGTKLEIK",
    "endpointValue": "0.6 nM"
  },
  {
    "binder": "MAb 714 (antibody, V domains shown, also called 141 A10; H1277/L250) VH: EVQLVESGGGLVQPGGSLKLSCAASGFTVSSNYMSWVRQAPGKGLEWVSVIYRGGSTYYADSVKGRFTISRDISRNMVYLQMNSLRAEDTAVYYCARNYYGSTYDYWGQGTLVTVSS VL: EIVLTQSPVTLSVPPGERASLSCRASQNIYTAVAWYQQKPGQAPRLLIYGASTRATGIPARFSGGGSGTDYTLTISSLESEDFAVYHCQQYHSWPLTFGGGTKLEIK",
    "endpointValue": "0.4 nM"
  },
  {
    "binder": "MAb 715 (antibody, V domains shown, also called 141 F2; H1278/L250) VH: EVQLLESGGGLIQPGGSLRLSCAASGFTVSNNYMSWVRQAPGKGLQWVAVIYSGGSTYYPDSMKGRFTISRDNSKNTLYLQMNSLRAEDTAVYYCARNYYGSTYDYWGQGTLVTVSS VL: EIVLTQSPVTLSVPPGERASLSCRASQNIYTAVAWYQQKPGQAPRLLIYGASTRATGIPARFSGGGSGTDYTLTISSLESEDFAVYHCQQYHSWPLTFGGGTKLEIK",
    "endpointValue": "0.6 nM"
  }
]

Given the binder MAb 699 (antibody, V domains shown, also called 183 E9; H1273/L250) VH: EVQLLESGGGLIQPGGSLRLSCAASGFTVSSNYMSWVRQAPGKGLEWVSVIYSGGSTYYADSVKGRFTISRDNAKNTVYLQMNSLRSEDTAVYYCARNYYGSTYDYWGQGTLVTVSS VL: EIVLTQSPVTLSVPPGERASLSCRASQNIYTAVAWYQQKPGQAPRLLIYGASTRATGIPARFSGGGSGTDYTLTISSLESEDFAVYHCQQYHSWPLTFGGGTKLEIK , what is its reported Affinity?
7.3 nM
